# LDH (% of ctl) per entry
Tested on: primary cortico-hippocampal neuron cultures
Assay: lactate dehydrogenase (LDH) activity assay in parallel neuron cultures
Conditions: Primary Screening; table sorted by Aβ1-40
Structures can show the parent of a compound that is named as a salt.

These solved cases illustrate the format of a correct answer.
[Q] API: value(readout= LDH (% of ctl), system= primary cortico-hippocampal neuron cultures, query= NNc1nncc2ccccc12 [Hydralazine Hydrochloride] )
[A] 101.1 % of ctl

[Q] Which measured LDH (% of ctl) belongs to C[C@]12CC[C@H]3[C@@H](CC[C@]4(O)C[C@@H](O)CC[C@]34C=O)[C@@]1(O)CC[C@@H]2C1=CC(=O)OC1 , tested on primary cortico-hippocampal neuron cultures?
[A] 119.4 % of ctl

Others:
[Q] Tell me reported LDH (% of ctl) for CC(C)NCC(O)c1ccc2ccccc2c1 (centres unmarked) [Pronetalol Hydrochloride] , tested with primary cortico-hippocampal neuron cultures.
[A] 108.9 % of ctl

[Q] // map CCOC(=O)[N-]c1cn(N2CCOCC2)n[o+]1 to recorded LDH (% of ctl) (system: primary cortico-hippocampal neuron cultures)
[A] 1127.4 % of ctl

[Q] Reported LDH (% of ctl) for primary cortico-hippocampal neuron cultures, given CCC(=O)O[C@@H](O[P@](=O)(CCCCc1ccccc1)CC(=O)N1C[C@H](C2CCCCC2)C[C@H]1C(=O)O)C(C)C [Fosinopril Sodium] ?
[A] 75.6 % of ctl

[Q] Query LDH (% of ctl) on primary cortico-hippocampal neuron cultures for CC(=O)CCCCn1c(=O)c2c(ncn2C)n(C)c1=O
[A] 132.4 % of ctl

[Q] # query: LDH (% of ctl) | item COc1ccc(CCN(C)CCCC(C#N)(c2ccc(OC)c(OC)c2)C(C)C)cc1OC (centres unmarked) | system: primary cortico-hippocampal neuron cultures
[A] 92.5 % of ctl

[Q] What is its LDH (% of ctl) for primary cortico-hippocampal neuron cultures? Entry: CCN(CC)CCOC(=O)C(Cc1cccc2ccccc12)CC1CCCO1 (centres unmarked) [Nafronyl Oxalate]
[A] 96.6 % of ctl

----------
LDH (% of ctl) values by entry
Test system: primary cortico-hippocampal neuron cultures
Assay: lactate dehydrogenase (LDH) activity assay in parallel neuron cultures
Details: Primary Screening; table sorted by Aβ1-40
Where a name gives a salt, the structure may show the parent alone.

Guide cases for LDH (% of ctl), answers given:
[Q] Quick check: LDH (% of ctl) on primary cortico-hippocampal neuron cultures, item C[C@@H]1CCC[C@H](C)N1NC(=O)c1ccc(Cl)c(S(N)(=O)=O)c1 [Clopamide] ?
[A] 99.9 % of ctl

[Q] API: value(readout= LDH (% of ctl), system= primary cortico-hippocampal neuron cultures, query= Fc1ccc(C(c2ccc(F)cc2)N2CCN(C/C=C/c3ccccc3)CC2)cc1 [Flunarizine Hydrochloride] )
[A] 120.4 % of ctl

[Q] Lab note: need LDH (% of ctl) with primary cortico-hippocampal neuron cultures for entry CC(=O)CC(c1ccccc1)c1c(O)c2ccccc2oc1=O (stereo not drawn) , please look it up.
[A] 106.6 % of ctl

[Q] Can you look up LDH (% of ctl) on primary cortico-hippocampal neuron cultures for C[C@H](CS)C(=O)N1CCC[C@H]1C(=O)O ?
[A] 120.2 % of ctl

[Q] Enter reported LDH (% of ctl) observed with primary cortico-hippocampal neuron cultures for CCCNCC(O)COc1ccccc1C(=O)CCc1ccccc1 (stereo not drawn) [Propafenone Hydrochloride]
[A] 113.7 % of ctl

[Q] Can you look up LDH (% of ctl) on primary cortico-hippocampal neuron cultures for CO[C@H]1[C@H](O)[C@H](O[C@H]2CC[C@@]3(C)[C@H](CC[C@@H]4[C@@H]3CC[C@]3(C)[C@@H](C5=CC(=O)OC5)CC[C@]43O)C2)O[C@@H](C)[C@@H]1O ?
[A] 110.8 % of ctl

[Q] State its LDH (% of ctl) on primary cortico-hippocampal neuron cultures: CCOC(=O)[C@H](CCc1ccccc1)N[C@@H](C)C(=O)N1CCC[C@H]1C(=O)O [Enalapril Maleate]
[A] 118.9 % of ctl

[Q] Identify the measured LDH (% of ctl) of COCCOC(=O)C1=C(C)NC(C)=C(C(=O)OC(C)C)C1c1cccc([N+](=O)[O-])c1 (stereo not drawn) for primary cortico-hippocampal neuron cultures.
[A] 100.4 % of ctl

[Q] Hi! What's the reported LDH (% of ctl) for CO[C@H]1[C@H](O)[C@H](O[C@H]2CC[C@@]3(C=O)[C@H](CC[C@@H]4[C@@H]3CC[C@]3(C)[C@@H](C5=CC(=O)OC5)CC[C@]43O)C2)O[C@@H](C)[C@@H]1O [Peruvoside] on primary cortico-hippocampal neuron cultures?
[A] 105.5 % of ctl

[Q] Entry NS(=O)(=O)c1cc2c(cc1Cl)N=CNS2(=O)=O [Chlorothiazide] , system primary cortico-hippocampal neuron cultures: what LDH (% of ctl) was measured?
[A] 110.3 % of ctl

More entries:
[Q] Form field: LDH (% of ctl) recorded for CCCc1nc(C(C)(C)O)c(C(=O)OCc2oc(=O)oc2C)n1Cc1ccc(-c2ccccc2-c2nnn[nH]2)cc1 with primary cortico-hippocampal neuron cultures (enter value)
[A] 90.7 % of ctl

[Q] # query: LDH (% of ctl) | item CC(NCCC(c1ccccc1)c1ccccc1)c1ccccc1 (stereo not drawn) [Fendiline Hydrochloride] | system: primary cortico-hippocampal neuron cultures
[A] 1881.4 % of ctl

[Q] LDH (% of ctl) of CCCCNc1cc(C(=O)O)cc(S(N)(=O)=O)c1Oc1ccccc1 [Bumetanide] on primary cortico-hippocampal neuron cultures?
[A] 118.1 % of ctl

[Q] # get_value(readout= LDH (% of ctl), system= primary cortico-hippocampal neuron cultures) for C[C@]12CCC(=O)C=C1C=C[C@@H]1[C@@H]2CC[C@@]2(C)[C@H]1CC[C@@]2(O)CCC(=O)O [Canrenoic Acid, Potassium Salt]
[A] 106.9 % of ctl

[Q] Short answer please: LDH (% of ctl), primary cortico-hippocampal neuron cultures, entry O=C(O)C(O)C(O)C(=O)O.OCc1cccnc1 (stereo not drawn) [Nicotinyl Tartrate]
[A] 122.6 % of ctl

----------
Tested on: Aβ1-42
Assay: Aβ1-42 content in conditioned medium of primary cortico-hippocampal neuron cultures from Tg2576 mice (ELISA; primary and secondary dose-response screening)
Format: cell-based, mouse
Conditions: Primary Screening, drug 100 μM; table sorted by Aβ1-40
Structures can show the parent of a compound that is named as a salt.
outcome-measure: Ab1-42 (% of ctl)

[Q] Looking for the measured Ab1-42 (% of ctl) of CCOc1nc2cccc(C(=O)OC(C)OC(=O)OC3CCCCC3)c2n1Cc1ccc(-c2ccccc2-c2nn[nH]n2)cc1 (stereo not shown) , can you help?
[A] 18.1 % of ctl

[Q] Which Ab1-42 (% of ctl) reading was recorded for the molecule COc1cc2c3cc1Oc1c(OC)c(OC)cc4c1[C@@H](Cc1cccc(c1)Oc1ccc(c(O)c1)C[C@@H]3N(C)CC2)N(C)CC4 [Berbamine Hydrochloride] ?
[A] 150.6 % of ctl

[Q] Given the molecule CC(C)(Oc1ccc(CCNC(=O)c2ccc(Cl)cc2)cc1)C(=O)O [BENZAFIBRATE] , what is its reported Ab1-42 (% of ctl)?
[A] 99.5 % of ctl

[Q] # input molecule: COc1ccc(Cc2nccc3cc(OC)c(OC)cc23)cc1OC [Papaverine Hydrochloride] ; wanted: its Ab1-42 (% of ctl)
[A] 30.1 % of ctl

[Q] Please report the recorded Ab1-42 (% of ctl) for Cc1cc(C(C)(C)C)cc(C)c1CC1=NCCN1 [Xylometazoline Hydrochloride] .
[A] 71.8 % of ctl

[Q] Endpoint output: Ab1-42 (% of ctl) of C[N+](C)(C)CCCCCC[N+](C)(C)C [Hexamethonium Bromide] . Value?
[A] 72.6 % of ctl

[Q] Could you tell me which Ab1-42 (% of ctl) is on file for CO[C@H]1[C@H](O)[C@H](O[C@H]2CC[C@@]3(C=O)[C@H](CC[C@@H]4[C@@H]3CC[C@]3(C)[C@@H](C5=CC(=O)OC5)CC[C@]43O)C2)O[C@@H](C)[C@@H]1O [Peruvoside] ?
[A] 90.9 % of ctl

[Q] Value lookup for Ab1-42 (% of ctl); key = CCN1C[C@]2(C)CC[C@H](OC)[C@@]34C1[C@]1(OCO[C@@]15C[C@H](OC)[C@H]1C[C@]3(O)[C@@H]5[C@H]1OC)[C@@H](OC(C)=O)[C@H]24
[A] 143.0 % of ctl

Continue with the molecule presented below.
[Q] Given NCCc1cc(O)c(O)cc1O [Oxidopamine Hydrochloride] , state its recorded Ab1-42 (% of ctl).
[A] 36.4 % of ctl

----------
# LDH (% of ctl) per entry
Test system: primary cortico-hippocampal neuron cultures
Test: lactate dehydrogenase (LDH) activity assay in parallel neuron cultures
Settings: Primary Screening; table sorted by Aβ1-40
Where a name gives a salt, the structure may show the parent alone.

Observe how each entry below is paired with its result.
[Q] Can you look up the measured LDH (% of ctl) of CC(C)NCC(O)COc1cccc2[nH]ccc12 (stereo not drawn) for me?
[A] 171.7 % of ctl

[Q] // lookup LDH (% of ctl) for C=C(CC)C(=O)c1ccc(OCC(=O)O)c(Cl)c1Cl
[A] 101.5 % of ctl

[Q] Given the entry c1ccc(CC2=NCCN2)cc1 [Tolazoline Hydrochloride] , report its measured LDH (% of ctl).
[A] 112.5 % of ctl

[Q] Query: LDH (% of ctl); subject: OCCN(CCO)c1nc(N2CCCCC2)c2nc(N(CCO)CCO)nc(N3CCCCC3)c2n1
[A] 107.5 % of ctl

[Q] What measured LDH (% of ctl) goes with O=c1cc(-c2ccccc2)oc2cc(O)cc(O)c12 ?
[A] 118.3 % of ctl

[Q] For the compound shown here, CCN(CC)CCNC(=O)c1ccc(N)cc1 [Procainamide Hydrochloride] , give the reported LDH (% of ctl).
[A] 111.1 % of ctl

New cases:
[Q] State the recorded LDH (% of ctl) for this entry: Cc1cc(C(C)(C)C)cc(C)c1CC1=NCCN1 [Xylometazoline Hydrochloride]
[A] 110.8 % of ctl

[Q] Report LDH (% of ctl) for CCCC(=O)Nc1ccc(OCC(O)CNC(C)C)c(C(C)=O)c1 (stereo not drawn) [Acebutolol Hydrochloride] please.
[A] 107.6 % of ctl

[Q] Request the reported LDH (% of ctl) associated with CC(=O)Nc1ccc(OCC(O)CNC(C)C)cc1 (stereo not drawn)
[A] 108.9 % of ctl

Each recorded value in this set is attributed to patent US20100029654A1.
